Target: Integrin alpha-V/beta-3 (Homo sapiens, UniProt P05106+P06756)
Sequence (P05106 27-788 limits assumed): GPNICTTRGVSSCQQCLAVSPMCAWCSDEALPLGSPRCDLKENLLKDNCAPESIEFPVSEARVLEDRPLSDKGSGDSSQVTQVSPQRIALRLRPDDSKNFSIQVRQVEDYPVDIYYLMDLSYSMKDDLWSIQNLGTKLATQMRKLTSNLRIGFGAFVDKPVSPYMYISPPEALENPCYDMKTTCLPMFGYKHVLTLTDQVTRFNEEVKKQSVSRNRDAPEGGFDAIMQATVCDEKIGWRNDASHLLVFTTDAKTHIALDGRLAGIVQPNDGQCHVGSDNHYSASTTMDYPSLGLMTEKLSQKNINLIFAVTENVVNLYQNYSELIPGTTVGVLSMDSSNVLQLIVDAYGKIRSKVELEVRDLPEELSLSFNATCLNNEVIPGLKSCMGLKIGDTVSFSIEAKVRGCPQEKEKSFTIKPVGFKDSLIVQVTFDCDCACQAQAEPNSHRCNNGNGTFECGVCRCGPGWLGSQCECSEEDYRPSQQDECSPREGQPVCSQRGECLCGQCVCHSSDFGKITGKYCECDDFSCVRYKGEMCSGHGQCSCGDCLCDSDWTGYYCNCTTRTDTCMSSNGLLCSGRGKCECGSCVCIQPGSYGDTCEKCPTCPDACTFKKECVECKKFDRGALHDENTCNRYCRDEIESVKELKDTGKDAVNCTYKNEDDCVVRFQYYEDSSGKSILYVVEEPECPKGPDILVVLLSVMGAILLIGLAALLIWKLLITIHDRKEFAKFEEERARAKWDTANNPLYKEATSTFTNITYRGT
Sequence (P06756 31-889 limits assumed): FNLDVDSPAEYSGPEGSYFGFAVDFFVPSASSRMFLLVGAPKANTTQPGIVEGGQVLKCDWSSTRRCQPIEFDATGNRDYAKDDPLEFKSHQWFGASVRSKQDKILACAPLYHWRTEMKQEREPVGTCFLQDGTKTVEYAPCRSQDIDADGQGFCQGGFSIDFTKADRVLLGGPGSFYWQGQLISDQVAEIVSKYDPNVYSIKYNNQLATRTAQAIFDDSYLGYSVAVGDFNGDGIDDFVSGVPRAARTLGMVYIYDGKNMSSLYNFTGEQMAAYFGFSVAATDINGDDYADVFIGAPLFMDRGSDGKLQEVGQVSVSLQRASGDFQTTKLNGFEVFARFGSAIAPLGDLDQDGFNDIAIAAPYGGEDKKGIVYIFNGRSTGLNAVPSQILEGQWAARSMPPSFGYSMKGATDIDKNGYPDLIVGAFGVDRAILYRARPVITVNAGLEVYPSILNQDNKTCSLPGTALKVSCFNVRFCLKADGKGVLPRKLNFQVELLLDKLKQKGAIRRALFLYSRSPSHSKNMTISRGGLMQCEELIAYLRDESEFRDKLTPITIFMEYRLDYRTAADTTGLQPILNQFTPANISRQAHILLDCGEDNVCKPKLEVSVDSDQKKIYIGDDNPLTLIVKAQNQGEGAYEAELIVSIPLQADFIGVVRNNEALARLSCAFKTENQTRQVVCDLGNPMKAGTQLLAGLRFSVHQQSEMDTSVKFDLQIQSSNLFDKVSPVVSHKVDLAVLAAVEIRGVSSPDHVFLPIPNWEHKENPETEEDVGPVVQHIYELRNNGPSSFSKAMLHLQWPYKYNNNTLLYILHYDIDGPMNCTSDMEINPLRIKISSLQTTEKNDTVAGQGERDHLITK
Sequence (P06756 891-1048 limits assumed): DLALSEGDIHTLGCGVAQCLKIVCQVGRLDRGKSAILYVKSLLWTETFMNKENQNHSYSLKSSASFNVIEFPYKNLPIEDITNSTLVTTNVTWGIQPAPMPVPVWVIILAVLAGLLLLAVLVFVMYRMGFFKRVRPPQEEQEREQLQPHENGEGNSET
Assay: Effect against adhesion of HEK 293 cells transfected with human alpha-v beta-3 to vitronectin coated plates
attribute measured: IC50 (µM)

- CN(Cc1nc2cc(C#N)ccc2[nH]1)C(=O)c1ccc2c(c1)CN(C)C(=O)[C@H](CC(=O)O)N2 (racemic): 0.69
- CN(Cc1nc2ccc(N)cc2[nH]1)C(=O)c1ccc2c(c1)CN(C)C(=O)[C@H](CC(=O)O)N2 (racemic): 0.9
- CC(C)N1Cc2cc(C(=O)NCc3nc4ccccc4[nH]3)ccc2N[C@@H](CC(=O)O)C1=O (racemic): 5.1
- CN(Cc1nc2c([N+](=O)[O-])cccc2[nH]1)C(=O)c1ccc2c(c1)CN(C)C(=O)[C@H](CC(=O)O)N2: 1.1
- CN1Cc2cc(C(=O)NCc3nc4ccccc4[nH]3)ccc2N[C@@H](CC(=O)O)C1=O: 1.65

A = O=C(O)C[C@@H]1Nc2ccc(C(=O)NCc3nc4ccccc4[nH]3)cc2CN(CCc2cccnc2)C1=O
B = O=C(O)C[C@@H]1Nc2ccc(C(=O)NCc3nc4ccccc4[nH]3)cc2CN(Cc2ccccc2)C1=O
C = CN1Cc2cc(C(=O)NCc3nc4ccccc4[nH]3)ccc2N[C@@H](CC(=O)O)C1=O (racemic)
D = CN(Cc1nc2ccccc2[nH]1)C(=O)c1ccc2c(c1)CNC(=O)[C@H](CC(=O)O)N2
[ask] Order the records so the highest IC50 appears first and the lowest last. Provide the ranking by listing each label in its place in the requested order.
[reply] C, B, D, A

* * *

Target: Integrin alpha-V/beta-3 (Homo sapiens, UniProt P05106+P06756)
Experiment: Binding affinity evaluated against vitronectin receptor (alphaV-beta3) receptor
attribute measured: Ki (nM)

Example cases with answers are listed next.
- CN(Cc1nc2cc(C#N)ccc2[nH]1)C(=O)c1ccc2c(c1)CN(C)C(=O)[C@H](CC(=O)O)N2 (racemic): 15
- O=C(O)C[C@@H]1Nc2ccc(C(=O)NCc3nc4ccccc4[nH]3)cc2CN(Cc2ccccc2)C1=O: 15
- CN(Cc1nc2c([N+](=O)[O-])cccc2[nH]1)C(=O)c1ccc2c(c1)CN(C)C(=O)[C@H](CC(=O)O)N2: 13
- CN(Cc1nc2cc(Cl)ccc2[nH]1)C(=O)c1ccc2c(c1)CN(C)C(=O)[C@H](CC(=O)O)N2 (racemic): 11

P = O=C(O)C[C@@H]1Nc2ccc(C(=O)NCc3nc4ccccc4[nH]3)cc2CN(CCc2ccccc2)C1=O (racemic)
Q = CC(C)(C)CCN1Cc2cc(C(=O)NCc3nc4ccccc4[nH]3)ccc2N[C@@H](CC(=O)O)C1=O (racemic)
[ask] Hi there! Just curious which has the higher Ki between P and Q . Your answer should be the label attached to the chosen record.
[reply] Q
